Hello, the source for this data is ChEMBL document CHEMBL4689842, in case you need it.

Assign Population Tubulin-Different-Phenotype (%) to each entry below.
- System: Fibroblast
- RUN_DESCRIPTION: Multiplex assay against human fibroblast
- Format: toxicity, cell-based
- CONDITION_INFO: 24 h, 1 µM, compound concentration 1 uM, replicate 2
Numeric only. Scale: %

Look at this molecule and give its reported Population Tubulin-Different-Phenotype (%). CCOc1cc2ncc(C#N)c(Nc3ccc(OCc4cccc(F)c4)c(Cl)c3)c2cc1NC(=O)/C=C/CN(C)C 18

Need Population Tubulin-Different-Phenotype (%), item Cl.Cl.Nc1ncnc2c1c(-c1cccc(OCc3ccccc3)c1)cn2[C@H]1C[C@@H](CN2CCC2)C1 39

// returns reported Population Tubulin-Different-Phenotype (%) for input Cl.Cl.NC1(c2ccc(-c3nc4ccn5c(=O)[nH]nc5c4cc3-c3ccccc3)cc2)CCC1 16

Recorded Population Tubulin-Different-Phenotype (%) for COc1cc(N2CCC(N(C)C)CC2)ccc1Nc1ncc(Cl)c(Nc2ccccc2P(C)(C)=O)n1 , please? 13

Give its Population Tubulin-Different-Phenotype (%) value. Item: CC(C)(C)c1cnc(CSc2cnc(NC(=O)C3CCNCC3)s2)o1 5

* * *

- Tested on: HEK-293T
- RUN_DESCRIPTION: Incucyte cell viability with HEK293T; also: filed as whole numbers so only -1 and 0 and 1 occur
- Format: toxicity, cell-based
- CONDITION_INFO: human, 18 h, 10 µM, compound concentration 10 uM, replicate number 2, timepoint 18 hours
Field: Growth Rate. Provide a value for each of the compounds that follow.
Provide a numeric answer; units are not to be included.

So what does the record say about Growth Rate for CC(C)NCC(O)c1ccc(N)c(C#N)c1 (centres undefined) [CIMATEROL] ? 1

Reported Growth Rate for CN1CC(=O)N=C1NC(=O)Nc1cccc(Cl)c1 [FENOBAM ANHYDROUS] : what is it? 0

Item under review: CC(=O)N1CCC(c2ccc(C(=O)NC3=NCCN3)cc2C(F)(F)F)CC1 [BI 0054] . Reported Growth Rate? 0

So what's the measured Growth Rate for this one? CCc1cc2c(c(CC)n1)CCC(=O)N2Cc1ccc(-c2ccccc2-c2nnn[nH]2)cc1.Cl 0

* * *

Please respond with reported Population Mitochondria Different-Phenotype (%) for every item in the list.
- Tested on: U2OS
- RUN_DESCRIPTION: Multiplex assay against U2OS
- Type: toxicity, cell-based
- CONDITION_INFO: human, 12 h, 1 µM, compound concentration 1 uM, replicate 1
Express the result in % but write the number alone.

Which value of Population Mitochondria Different-Phenotype (%) has been reported for N#Cc1cnc(Nc2cc(NC[C@H]3CNCCO3)c(C(F)(F)F)cn2)cn1 in the records? 14

Given the compound CCOc1cc2ncc(C#N)c(Nc3ccc(OCc4cccc(F)c4)c(Cl)c3)c2cc1NC(=O)/C=C/CN(C)C , what is its reported Population Mitochondria Different-Phenotype (%)? 12

Using the record for c1ccc2oc(-c3csc(C4CCN(Cc5nc6ncccc6[nH]5)CC4)n3)cc2c1 , report its Population Mitochondria Different-Phenotype (%). 15

For the compound CNC(=O)c1nn(C)c2c1C(C)(C)Cc1cnc(Nc3ccc(N4CCN(C)CC4)cc3)nc1-2 , what Population Mitochondria Different-Phenotype (%) is on record? 64

Fill blank: measured Population Mitochondria Different-Phenotype (%) of the compound CCc1cc2c(cc1CC)CC(NC[C@H](O)c1ccc(O)c3[nH]c(=O)ccc13)C2 is ____. 10

Quick one: Population Mitochondria Different-Phenotype (%) of Cc1cn(-c2cc(NC(=O)c3ccc4c(c3)CN(c3cncnc3)C[C@@H]4C)cc(C(F)(F)F)c2)cn1 ? 23

Requested read-out: Population Mitochondria Different-Phenotype (%). Entry: Nc1ccc(C(=O)Nc2cccc(-c3nc(N4CCOCC4)c4oc5ncccc5c4n3)c2)cn1 36

Any idea what its Population Mitochondria Different-Phenotype (%) is? The compound is COc1cc2c(Nc3ccc(NC(=O)c4ccccc4)cc3)ncnc2cc1OCCCN1CCOCC1 24

Look at this compound and give its reported Population Mitochondria Different-Phenotype (%). Cc1nc(Cc2cccc(C(F)(F)F)c2)sc1-c1ccc(C(N)=O)nc1 [TP-024n] 10

Find the recorded Population Mitochondria Different-Phenotype (%) belonging to Cc1cc2c(cc1N1C(=O)c3cccc4c(CCCO)ccc(c34)C1=O)n(C)c(=O)n2C and report it. 7

Find the recorded Population Mitochondria Different-Phenotype (%) belonging to O=C(O)c1ccc2cc(-c3ccc(O)c(C45CC6CC(CC(C6)C4)C5)c3)ccc2c1 and report it. 12
